Experiment: Antiproliferative activity against CHO cells after 72 hrs by CellTiter-Glo assay
Assay type: cell-based, Cricetulus griseus
Conditions: chinese hamster
Property Measured: GI50 at 72 h (µM)
Could you give me the number in µM? Just the number is fine.

1) C=CC(=O)Nc1cc(Nc2ncc(Cl)c(Nc3ccccc3S(=O)(=O)C(C)C)n2)c(OC)cc1N1CCCN(C)CC1 : 1.8

Supply recorded GI50 at 72 h for "C=CC(=O)Nc1cccc(Oc2nc(Nc3ccc(N4CCN(C)CC4)cc3OC)ncc2Cl)c1" here.
3.9

State its GI50 at 72 h for this compound: "CCC(=O)Nc1cc(Nc2ncc(Cl)c(Nc3ccccc3S(=O)(=O)C(C)C)n2)c(OC)cc1N1CCCN(C)CC1"
3.6

Return the recorded GI50 at 72 h value; entry: C[C@@H](Oc1cc(-c2cnn(C3CCNCC3)c2)cnc1N)c1c(Cl)ccc(F)c1Cl [CRIZOTINIB]
3.2
